experiment: antivirals protecting cells from dengue CPE – CPE readout, HTS (AID 540333); conditions: Dengue virus CPE inhibition in host cells, at 20 µM
The whole screen tested about 10,000 compounds, of which about 320 (3.2%) were called active. Rule as the data show it: active = CPE inhibition mostly above about 9.1% (no sharp cut-off); inactive = mostly below about 7.2%. The full list was thinned out, with actives kept by preference.
Return exactly one item of 1.0 (active), 0.0 (inactive)

CCc1cccc(CC)c1NC(=O)C1CN(S(=O)(=O)c2ccccc2)CCN1S(=O)(=O)c1ccccc1 (stereo not drawn): 0.0
Cc1ccccc1NC(=O)C1CCCN1/C=C/C(=O)C(F)(F)F (stereo not drawn): 0.0
CCCN1C(=O)/C(=N\OCC(=O)Nc2ccc(C(C)C)cc2)c2ccccc21: 0.0

Here's the next entry for you.
Task: How did this test come out for `O=C(C1=NN[C@@H]2C(=O)N(c3cccc(C(F)(F)F)c3)C(=O)[C@H]12)C(c1ccccc1)c1ccccc1` ?
Result: 0.0
